# methodDescription: in vivo
# conditions: male, Sprague Dawley, rat, plasma, iv, 0.2 mg/kg
outcomeMeasure: half-life at 24 h (h)

molecule="Brc1ccc2[nH]nc(C3=CCCNC3)c2c1 [Compound 19d]" outcomemeasure="half-life at 24 h" readoutunits=h number=2.8

* * *

# measuredOn: human 5-HT2A (Homo sapiens, UniProt P28223)
# Sequence (P28223 whole entry): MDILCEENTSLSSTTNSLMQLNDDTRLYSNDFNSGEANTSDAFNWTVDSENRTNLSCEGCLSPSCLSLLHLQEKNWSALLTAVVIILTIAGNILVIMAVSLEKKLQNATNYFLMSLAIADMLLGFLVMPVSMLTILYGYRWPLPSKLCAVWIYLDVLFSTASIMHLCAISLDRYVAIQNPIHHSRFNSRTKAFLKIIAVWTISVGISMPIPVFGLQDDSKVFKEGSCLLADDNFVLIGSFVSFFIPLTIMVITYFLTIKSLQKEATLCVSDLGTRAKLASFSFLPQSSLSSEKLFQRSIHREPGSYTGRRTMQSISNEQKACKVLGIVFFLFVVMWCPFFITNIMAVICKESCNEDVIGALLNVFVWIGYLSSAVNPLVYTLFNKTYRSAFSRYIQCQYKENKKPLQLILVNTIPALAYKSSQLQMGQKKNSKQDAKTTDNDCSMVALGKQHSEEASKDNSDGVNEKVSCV
# conditions: % 5-HT Max, human 5-HT2A-CHO cells
The entries below come with measured 5-HT2A % Max values attached.
outcomeMeasure: 5-HT2A % Max (%)

molecule="Nc1ccc2[nH]nc(C3=CCCNC3)c2c1 [Compound 19e]" number=40.4
molecule="COc1ccc2[nH]nc(C3=CCCNC3)c2c1 [Compound 19f]" number=12.3
molecule="COc1ccc2[nH]nc(CCN(C)C)c2c1 [Compound 6a]" number=10.7
molecule="C1=C(c2n[nH]c3ccccc23)CNCC1 [Compound 19a]" number=17.5
molecule="Cn1nc(C2=CCCNC2)c2ccccc21 [Compound 19b]" number=42.2
molecule="CN(C)CCc1n[nH]c2ccc(O)cc12 [Compound 16]" number=26.2
molecule="[2H]C([2H])(Cc1n[nH]c2ccc(OC)cc12)N(C)C [Compound 6b]" number=11.7
molecule="Brc1ccc2[nH]nc(C3=CCCNC3)c2c1 [Compound 19d]" number=41.4

* * *

# measuredOn: human 5-HT2C (Homo sapiens, UniProt P28335)
# Sequence (P28335 33-458): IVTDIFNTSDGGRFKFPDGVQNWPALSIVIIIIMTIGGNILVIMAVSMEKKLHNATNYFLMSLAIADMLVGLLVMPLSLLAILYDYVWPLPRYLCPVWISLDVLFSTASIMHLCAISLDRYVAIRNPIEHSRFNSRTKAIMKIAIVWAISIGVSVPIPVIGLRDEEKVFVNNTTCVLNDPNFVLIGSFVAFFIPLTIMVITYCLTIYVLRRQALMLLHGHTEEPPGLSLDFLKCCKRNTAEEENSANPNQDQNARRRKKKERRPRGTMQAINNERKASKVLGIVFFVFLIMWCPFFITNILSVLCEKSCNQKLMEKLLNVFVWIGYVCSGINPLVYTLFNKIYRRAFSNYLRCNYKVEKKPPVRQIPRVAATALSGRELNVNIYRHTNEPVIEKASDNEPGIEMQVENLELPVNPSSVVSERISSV
# conditions: % 5-HT Max, human 5-HT2C-CHO cells
outcomeMeasure: 5-HT2C % Max (%)

compound="[2H]C([2H])(Cc1n[nH]c2ccc(OC)cc12)N(C)C [Compound 6b]" readoutunits=% number=32.3
compound="Nc1ccc2[nH]nc(C3=CCCNC3)c2c1 [Compound 19e]" readoutunits=% number=86.9
compound="CN(C)CCc1n[nH]c2ccc(O)cc12 [Compound 16]" readoutunits=% number=53.3
compound="Brc1ccc2[nH]nc(C3=CCCNC3)c2c1 [Compound 19d]" readoutunits=% number=93.9
compound="Cn1nc(C2=CCCNC2)c2ccccc21 [Compound 19b]" readoutunits=% number=50.3
compound="COc1ccc2[nH]nc(C3=CCCNC3)c2c1 [Compound 19f]" readoutunits=% number=59.8
compound="C1=C(c2n[nH]c3ccccc23)CNCC1 [Compound 19a]" readoutunits=% number=67.7
compound="COc1ccc2[nH]nc(CCN(C)C)c2c1 [Compound 6a]" readoutunits=% number=32.1

* * *

# methodDescription: in vitro
# conditions: mouse, plasma, pH 7.4
outcomeMeasure: fraction unbound at 6 h, 5 µM

compound="Brc1ccc2[nH]nc(C3=CCCNC3)c2c1 [Compound 19d]" number=0.12

* * *

# methodDescription: in vivo
# conditions: male, Sprague Dawley, rat, brain, iv, 0.2 mg/kg
outcomeMeasure: Kp at 0.25 h

molecule="Brc1ccc2[nH]nc(C3=CCCNC3)c2c1 [Compound 19d]" outcomemeasure="Kp at 0.25 h" result=5.4

* * *

# measuredOn: human 5-HT2B (Homo sapiens, UniProt P41595)
# Sequence (P41595 whole entry): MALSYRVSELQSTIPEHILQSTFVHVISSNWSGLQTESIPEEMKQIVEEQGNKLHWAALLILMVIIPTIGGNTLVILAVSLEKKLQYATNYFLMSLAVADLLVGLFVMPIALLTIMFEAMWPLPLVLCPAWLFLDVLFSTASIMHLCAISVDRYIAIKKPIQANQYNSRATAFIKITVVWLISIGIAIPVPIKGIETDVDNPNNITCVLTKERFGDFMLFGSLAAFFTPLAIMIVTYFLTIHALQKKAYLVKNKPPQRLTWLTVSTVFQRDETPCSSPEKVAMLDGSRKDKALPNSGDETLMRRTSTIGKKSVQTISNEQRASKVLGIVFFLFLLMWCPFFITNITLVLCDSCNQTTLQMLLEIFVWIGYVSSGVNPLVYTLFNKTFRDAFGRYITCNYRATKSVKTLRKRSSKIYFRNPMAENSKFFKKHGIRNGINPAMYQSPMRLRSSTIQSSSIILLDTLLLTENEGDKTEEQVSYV
# conditions: % 5-HT Max, human 5-HT2B-HEK293 cells
5-HT2B % Max below 50% gives no; 5-HT2B % Max at or above it gives yes.

compound="COc1ccc2[nH]nc(C3=CCCNC3)c2c1 [Compound 19f]" assignedcategory=yes
compound="Cn1nc(C2=CCCNC2)c2ccccc21 [Compound 19b]" assignedcategory=no
compound="Brc1ccc2[nH]nc(C3=CCCNC3)c2c1 [Compound 19d]" assignedcategory=yes
compound="CN(C)CCc1n[nH]c2ccc(O)cc12 [Compound 16]" assignedcategory=yes
compound="COc1ccc2[nH]nc(CCN(C)C)c2c1 [Compound 6a]" assignedcategory=no
compound="C1=C(c2n[nH]c3ccccc23)CNCC1 [Compound 19a]" assignedcategory=yes
compound="Nc1ccc2[nH]nc(C3=CCCNC3)c2c1 [Compound 19e]" assignedcategory=yes
compound="[2H]C([2H])(Cc1n[nH]c2ccc(OC)cc12)N(C)C [Compound 6b]" assignedcategory=yes
